System: E. faecium K36-18
Assay Summary: MIC, multi-resistant clinical isolate
Type: cell-based, Enterococcus faecium
Condition Parameters: Enterococcus faecium, K3618, read-out: Antimicrobial activity (MIC)
Give measured MIC for each item. Keep answers brief.
Numbers only, in µg/mL.

CC(C)(C)c1cc(CC2(Cc3cc(C(C)(C)C)cc(C(C)(C)C)c3)C(=O)N(CCCCNC(=N)N)C(=O)N(CCCCNC(=N)N)C2=O)cc(C(C)(C)C)c1 | 2
NCCCCN1C(=O)N(CCCCN)C(=O)C(Cc2cc(Br)cc(Br)c2)(Cc2cc(Br)cc(Br)c2)C1=O | 8
CC(C)(C)c1ccc(CC2(Cc3ccc(C(C)(C)C)cc3)C(=O)N(CCCCNC(=N)N)C(=O)N(CCCCNC(=N)N)C2=O)cc1 | 2
NCCCCN1C(=O)N(CCCCN)C(=O)C(Cc2cc(C(F)(F)F)cc(C(F)(F)F)c2)(Cc2cc(C(F)(F)F)cc(C(F)(F)F)c2)C1=O | 16
CC(C)(C)c1cc(CC2(Cc3cc(C(C)(C)C)cc(C(C)(C)C)c3)C(=O)N(CCCCN)C(=O)N(CCCCN)C2=O)cc(C(C)(C)C)c1 | 2

(Q) E. faecium K36-18 / MIC / CC(C)(C)c1ccc(CC2(Cc3ccc(C(C)(C)C)cc3)C(=O)N(CCCCN)C(=O)N(CCCCN)C2=O)cc1 : value?
(A) 8

* * *

Test system: K. pneumoniae K47-25
Assay Summary: MIC, multi-resistant clinical isolate
Type: cell-based, Klebsiella pneumoniae
Condition Parameters: Klebsiella pneumoniae, K4725, 24 h; K. pneumoniae K47-25, resistant to colistin; read-out: Antimicrobial activity (MIC)
Give measured MIC for each item. Keep answers brief.
One number for each entry, in µg/mL.

N=C(N)NCCCCN1C(=O)N(CCCCNC(=N)N)C(=O)C(Cc2ccc3ccccc3c2)(Cc2ccc3ccccc3c2)C1=O [8(iv)] | 16
N=C(N)NCCCCN1C(=O)N(CCCCNC(=N)N)C(=O)C(Cc2ccc(F)c3ccccc23)(Cc2ccc(F)c3ccccc23)C1=O [8(v)] | 8
N=C(N)NCCCCN1C(=O)N(CCCCNC(=N)N)C(=O)C(Cc2cc(Br)cc(Br)c2)(Cc2cc(Br)cc(Br)c2)C1=O [8(ii)] | 4

Please state MIC for every molecule in the list that follows.
1. CC(C)(C)c1ccc(CC2(Cc3ccc(C(C)(C)C)cc3)C(=O)N(CCCCNC(=N)N)C(=O)N(CCCCNC(=N)N)C2=O)cc1 [Compound 8(i)]
2. CC(C)(C)c1cc(CC2(Cc3cc(C(C)(C)C)cc(C(C)(C)C)c3)C(=O)N(CCCCNC(=N)N)C(=O)N(CCCCNC(=N)N)C2=O)cc(C(C)(C)C)c1 [8(iii)]

(A)
1: 4; 2: 16

* * *

Tested on: A. baumanii K12-21
Assay Summary: MIC, multi-resistant clinical isolate
Assay type: cell-based, Acinetobacter baumannii
Condition Parameters: Acinetobacter baumannii, K1221, read-out: Antimicrobial activity (MIC)
Give measured MIC for each item. Keep answers brief.
Give bare numbers, in µg/mL.

Some solved cases for reference:
NCCCCN1C(=O)N(CCCCN)C(=O)C(Cc2cc(C(F)(F)F)cc(C(F)(F)F)c2)(Cc2cc(C(F)(F)F)cc(C(F)(F)F)c2)C1=O [7(vi)] | 16
CC(C)(C)c1cc(CC2(Cc3cc(C(C)(C)C)cc(C(C)(C)C)c3)C(=O)N(CCCCN)C(=O)N(CCCCN)C2=O)cc(C(C)(C)C)c1 [7(iii)] | 4

(Q) A. baumanii K12-21 / MIC / N=C(N)NCCCCN1C(=O)N(CCCCNC(=N)N)C(=O)C(Cc2ccc3ccccc3c2)(Cc2ccc3ccccc3c2)C1=O [8(iv)] : value?
(A) 32

Data origin, for the record: patent US11072588B2
